B1: EHMT1 (parent)
chain: SARQGELQKVLLMLVDGIDPNFKM

Variants of: B1
Test: protein stability index of a GFP-peptide fusion (GPS, HEK-293T) (PSI 1-6); higher = more stable;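 further: lentivirally expressed fusions sorted by FACS into six bins by GFP to DsRed ratio, PSI derived from sequencing read proportions per bin multiplied by bin number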
Conditions: c terminus: a fixed tail appended
measured-quantity: protein stability index

[[record]]
mut = "P20G"
measured_number = 1.09

[[record]]
mut = "I18R"
measured_number = 1.66

[[record]]
mut = "N21L"
measured_number = 3.55

[[record]]
mut = "P20T"
measured_number = 1.27

[[record]]
mut = "V15T"
measured_number = 1.26

[[record]]
mut = "L14W"
measured_number = 1.79

[[record]]
mut = "S1R"
measured_number = 2.2

[[record]]
mut = "L14F"
measured_number = 1.93

[[record]]
mut = "L7H"
measured_number = 3.17

[[record]]
mut = "G17K"
measured_number = 1.36

[[record]]
mut = "L11V"
measured_number = 2.7

[[record]]
mut = "I18Q"
measured_number = 3.19

[[record]]
mut = "F22V"
measured_number = 1.18

[[record]]
mut = "E6Y"
measured_number = 3.65

[[record]]
mut = "M13K"
measured_number = 1.89

[[record]]
mut = "M13D"
measured_number = 2.97

[[record]]
mut = "G17V"
measured_number = 3.87

[[record]]
mut = "N21M"
measured_number = 2.24

[[record]]
mut = "R3K"
measured_number = 2.8

[[record]]
mut = "K9V"
measured_number = 4.22

[[record]]
mut = "Q8T"
measured_number = 2.02

[[record]]
mut = "D16C"
measured_number = 1.61

[[record]]
mut = "K9D"
measured_number = 1.62

[[record]]
mut = "L7F"
measured_number = 1.04

[[record]]
mut = "V15L"
measured_number = 1.49

[[record]]
mut = "D16K"
measured_number = 2.45

[[record]]
mut = "V10N"
measured_number = 3.15

[[record]]
mut = "L11F"
measured_number = 2.49

[[record]]
mut = "L11K"
measured_number = 2.69

[[record]]
mut = "V15A"
measured_number = 2.07

[[record]]
mut = "D19A"
measured_number = 3.05

[[record]]
mut = "L12G"
measured_number = 2.15

[[record]]
mut = "K9R"
measured_number = 1.68

[[record]]
mut = "L11P"
measured_number = 3.13

[[record]]
mut = "E6S"
measured_number = 2.6

[[record]]
mut = "L11T"
measured_number = 2.36

[[record]]
mut = "A2C"
measured_number = 3.59

[[record]]
mut = "G5F"
measured_number = 1.98

[[record]]
mut = "M24G"
measured_number = 1.23

[[record]]
mut = "A2H"
measured_number = 2.27

[[record]]
mut = "F22C"
measured_number = 1.82

[[record]]
mut = "G5M"
measured_number = 3.61

[[record]]
mut = "G17Y"
measured_number = 2.38

[[record]]
mut = "L11C"
measured_number = 1.99

[[record]]
mut = "V15E"
measured_number = 2.54

[[record]]
mut = "G17Q"
measured_number = 1.61

[[record]]
mut = "Q4T"
measured_number = 2.01

[[record]]
mut = "K23P"
measured_number = 2.18

[[record]]
mut = "F22S"
measured_number = 2.71

[[record]]
mut = "G17P"
measured_number = 1.97

[[record]]
mut = "M13S"
measured_number = 2

[[record]]
mut = "L7N"
measured_number = 1.36

[[record]]
mut = "M24L"
measured_number = 1.93

[[record]]
mut = "K23I"
measured_number = 1.59

[[record]]
mut = "R3S"
measured_number = 1.75

[[record]]
mut = "M24N"
measured_number = 1.48

[[record]]
mut = "V15W"
measured_number = 2.75

[[record]]
mut = "V10E"
measured_number = 3.02

[[record]]
mut = "M24H"
measured_number = 1.19

[[record]]
mut = "A2I"
measured_number = 2.21

[[record]]
mut = "L12H"
measured_number = 2.39

[[record]]
mut = "K9T"
measured_number = 2.9

[[record]]
mut = "R3F"
measured_number = 1.86

[[record]]
mut = "L11G"
measured_number = 3.6

[[record]]
mut = "M13P"
measured_number = 3.74

[[record]]
mut = "G17D"
measured_number = 1.36

[[record]]
mut = "D16N"
measured_number = 2.72

[[record]]
mut = "L7T"
measured_number = 1.62

[[record]]
mut = "G5H"
measured_number = 1.97

[[record]]
mut = "V15M"
measured_number = 1.59

[[record]]
mut = "K23H"
measured_number = 2.78

[[record]]
mut = "L14G"
measured_number = 2.36

[[record]]
mut = "M24Q"
measured_number = 1.84

[[record]]
mut = "K9Q"
measured_number = 2.37

[[record]]
mut = "S1F"
measured_number = 1.97

[[record]]
mut = "K23Q"
measured_number = 2.39

[[record]]
mut = "I18H"
measured_number = 2.42

[[record]]
mut = "D19H"
measured_number = 3.59

[[record]]
mut = "R3Y"
measured_number = 1.88

[[record]]
mut = "L7E"
measured_number = 2.35

[[record]]
mut = "G5T"
measured_number = 3.12

[[record]]
mut = "Q4N"
measured_number = 1.6


The reported numbers originate from the supplement of paper PMC10567573.
